Taken from paper PMC10600247.

Tested on: E. coli (ATCC 25922)
Assay: In vitro anti-E. coli CFU assay
Assay type: cell-based, Escherichia coli
Settings: peptide 0.032 mg/mL + CuCl2 (0.9:1), 24 h, pH 5.4
Residues, ends and D or L forms follow the SMILES beside them.
CFU decrease/increase with respect to untreated controls values, listed per item
READOUT_LABEL: CFU decrease/increase with respect to untreated controls

>>> reading("CC[C@H](C)[C@H](NC(=O)[C@H](C)NC(=O)[C@@H](NC(C)=O)C(C)C)C(=O)N[C@@H](C)C(=O)N[C@@H](CC(C)C)C(=O)N[C@@H](CCCCN)C(=O)N[C@@H](C)C(=O)N[C@@H](C)C(=O)N[C@@H](Cc1c[nH]cn1)C(=O)N[C@@H](Cc1ccc(O)cc1)C(=O)N[C@@H](Cc1c[nH]cn1)C(=O)N[C@H](C(=O)N[C@@H](Cc1c[nH]cn1)C(=O)N[C@@H](CCCCN)C(=O)N[C@@H](CCC(=O)O)C(=O)O)[C@@H](C)O [L1, Ac-VAIALKAAHYHTHKE] (Ac-VAIALKAAHYHTHKE-OH)")
"-15%"
>>> reading("CC[C@H](C)[C@H](NC(=O)[C@H](C)NC(=O)[C@@H](NC(C)=O)C(C)C)C(=O)N[C@@H](C)C(=O)N[C@@H](CC(C)C)C(=O)N[C@@H](CCCCN)C(=O)N[C@@H](C)C(=O)N[C@@H](C)C(=O)N[C@@H](Cc1c[nH]cn1)C(=O)N[C@@H](Cc1ccc(O)cc1)C(=O)N[C@@H](Cc1c[nH]cn1)C(=O)N[C@H](C(=O)N[C@@H](Cc1c[nH]cn1)C(=O)N[C@@H](CCCCN)C(=O)N[C@@H](CCC(=O)O)C(N)=O)[C@@H](C)O [L2, Ac-VAIALKAAHYHTHKE-NH2] (Ac-VAIALKAAHYHTHKE-NH2)")
"-2.9%"
>>> reading("CC[C@H](C)[C@H](NC(=O)[C@H](C)NC(=O)[C@@H](N)C(C)C)C(=O)N[C@@H](C)C(=O)N[C@@H](CC(C)C)C(=O)N[C@@H](CCCCN)C(=O)N[C@@H](C)C(=O)N[C@@H](C)C(=O)N[C@@H](Cc1c[nH]cn1)C(=O)N[C@@H](Cc1ccc(O)cc1)C(=O)N[C@@H](Cc1c[nH]cn1)C(=O)N[C@H](C(=O)N[C@@H](Cc1c[nH]cn1)C(=O)N[C@@H](CCCCN)C(=O)N[C@@H](CCC(=O)O)C(N)=O)[C@@H](C)O [L3, VAIALKAAHYHTHKE-NH2] (H-VAIALKAAHYHTHKE-NH2)")
"+7%"

----------
Tested on: C. albicans (ATCC 10231)
Assay: In vitro antifungal CFU assay
Type: cell-based, Candida albicans
Details: peptide 0.032 mg/mL + ZnCl2 (0.9:1), 24 h, pH 5.4
Residues, ends and D or L forms follow the SMILES beside them.
READOUT_LABEL: CFU decrease/increase with respect to untreated controls (%)

>>> reading("CC[C@H](C)[C@H](NC(=O)[C@H](C)NC(=O)[C@@H](N)C(C)C)C(=O)N[C@@H](C)C(=O)N[C@@H](CC(C)C)C(=O)N[C@@H](CCCCN)C(=O)N[C@@H](C)C(=O)N[C@@H](C)C(=O)N[C@@H](Cc1c[nH]cn1)C(=O)N[C@@H](Cc1ccc(O)cc1)C(=O)N[C@@H](Cc1c[nH]cn1)C(=O)N[C@H](C(=O)N[C@@H](Cc1c[nH]cn1)C(=O)N[C@@H](CCCCN)C(=O)N[C@@H](CCC(=O)O)C(=O)O)[C@@H](C)O [WT, VAIALKAAHYHTHKE, reference compound] (H-VAIALKAAHYHTHKE-OH)")
-31
